Provide the recorded remaining activity at 1 µM for the entries that follow.
# Measured On: panel of 442 kinases (Homo sapiens)
# Construct: purchased Ambit Biosciences (scanMAXX KINOMEscan)
# Test Method Notes: biochemical
# Assay type: binding
# Assay Context: CDK4-cyclinD1; 1 µM; read-out: % of control at 1 µM
Response body: numeric value in %, unit text excluded.

Query (compound): FC(F)c1nc2ccccc2n1-c1nc(N2CCOCC2)nc(N2CCOCC2)n1 ; field requested: remaining activity at 1 µM 90

COc1ncc(-c2ccc3nccc(-c4ccnnc4)c3c2)cc1NS(=O)(=O)c1ccc(F)cc1F , same question. 100

Can you handle Nc1cc(C(F)(F)F)c(-c2cc(N3CCOCC3)nc(N3CCOCC3)n2)cn1 next? 82

Here is the next compound: Cn1c(=O)n(-c2ccc(C(C)(C)C#N)cc2)c2c3cc(-c4cnc5ccccc5c4)ccc3ncc21 100

---

# Measured On: panel of 442 kinases (Homo sapiens)
# Construct: purchased Ambit Biosciences (scanMAXX KINOMEscan)
# Test Method Notes: biochemical
# Type: binding
# Assay Context: kinase ZAK; 1 µM; read-out: ZAK (% of control at 1 µM)
Measured Endpoint: remaining activity at 1 µM (%)
Supply the numeric figure in %, leaving out any unit text.

Which value of remaining activity at 1 µM has been reported for FC(F)c1nc2ccccc2n1-c1nc(N2CCOCC2)nc(N2CCOCC2)n1 in the records? 92

Now give it for COc1ncc(-c2ccc3nccc(-c4ccnnc4)c3c2)cc1NS(=O)(=O)c1ccc(F)cc1F too. 81

Proceed to Cn1c(=O)n(-c2ccc(C(C)(C)C#N)cc2)c2c3cc(-c4cnc5ccccc5c4)ccc3ncc21 55

Further, for Nc1cc(C(F)(F)F)c(-c2cc(N3CCOCC3)nc(N3CCOCC3)n2)cn1 ? 85

---

# Measured On: panel of 442 kinases (Homo sapiens, UniProt Q8TD19)
# Construct: purchased Ambit Biosciences (scanMAXX KINOMEscan)
# Sequence (Q8TD19 whole entry): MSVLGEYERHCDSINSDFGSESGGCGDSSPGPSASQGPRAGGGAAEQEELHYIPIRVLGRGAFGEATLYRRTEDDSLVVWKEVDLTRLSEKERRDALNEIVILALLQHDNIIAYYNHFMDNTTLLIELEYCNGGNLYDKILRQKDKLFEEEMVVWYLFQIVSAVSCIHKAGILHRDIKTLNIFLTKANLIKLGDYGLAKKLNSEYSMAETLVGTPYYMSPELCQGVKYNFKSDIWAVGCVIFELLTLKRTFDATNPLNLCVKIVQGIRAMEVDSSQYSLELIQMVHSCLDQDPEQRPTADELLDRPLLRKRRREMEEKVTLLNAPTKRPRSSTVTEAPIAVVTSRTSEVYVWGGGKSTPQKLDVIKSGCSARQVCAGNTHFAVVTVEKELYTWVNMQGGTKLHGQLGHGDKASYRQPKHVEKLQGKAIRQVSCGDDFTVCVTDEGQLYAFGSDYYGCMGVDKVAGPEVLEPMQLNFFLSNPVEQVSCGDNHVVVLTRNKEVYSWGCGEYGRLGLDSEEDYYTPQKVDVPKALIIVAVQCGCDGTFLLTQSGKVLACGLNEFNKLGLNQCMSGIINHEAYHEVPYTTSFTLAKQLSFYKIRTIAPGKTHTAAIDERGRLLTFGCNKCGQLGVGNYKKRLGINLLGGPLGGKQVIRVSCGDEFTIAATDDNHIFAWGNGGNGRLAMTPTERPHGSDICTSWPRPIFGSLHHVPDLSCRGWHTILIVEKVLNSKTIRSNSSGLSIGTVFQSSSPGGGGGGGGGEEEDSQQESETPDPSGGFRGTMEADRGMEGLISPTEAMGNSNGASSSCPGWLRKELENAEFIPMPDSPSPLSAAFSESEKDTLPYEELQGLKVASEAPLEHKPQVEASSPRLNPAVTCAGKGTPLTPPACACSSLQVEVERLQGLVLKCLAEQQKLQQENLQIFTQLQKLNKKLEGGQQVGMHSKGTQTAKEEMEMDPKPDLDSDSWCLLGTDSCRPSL
# Test Method Notes: biochemical
# Type: binding
# Assay Context: kinase NEK9; 1 µM; read-out: % of control at 1 µM
Measured Endpoint: remaining activity at 1 µM

Give its remaining activity at 1 µM value. Item: Nc1cc(C(F)(F)F)c(-c2cc(N3CCOCC3)nc(N3CCOCC3)n2)cn1 94%

Same question, COc1ncc(-c2ccc3nccc(-c4ccnnc4)c3c2)cc1NS(=O)(=O)c1ccc(F)cc1F this time 100%

Can you check FC(F)c1nc2ccccc2n1-c1nc(N2CCOCC2)nc(N2CCOCC2)n1 next? 84%

Try the molecule Cn1c(=O)n(-c2ccc(C(C)(C)C#N)cc2)c2c3cc(-c4cnc5ccccc5c4)ccc3ncc21 96%

---

Record form. Attribute: remaining activity at 1 µM. Fill in for each entry.
# Measured On: panel of 442 kinases (Homo sapiens, UniProt P27361)
# Construct: purchased Ambit Biosciences (scanMAXX KINOMEscan)
# Sequence (P27361 whole entry): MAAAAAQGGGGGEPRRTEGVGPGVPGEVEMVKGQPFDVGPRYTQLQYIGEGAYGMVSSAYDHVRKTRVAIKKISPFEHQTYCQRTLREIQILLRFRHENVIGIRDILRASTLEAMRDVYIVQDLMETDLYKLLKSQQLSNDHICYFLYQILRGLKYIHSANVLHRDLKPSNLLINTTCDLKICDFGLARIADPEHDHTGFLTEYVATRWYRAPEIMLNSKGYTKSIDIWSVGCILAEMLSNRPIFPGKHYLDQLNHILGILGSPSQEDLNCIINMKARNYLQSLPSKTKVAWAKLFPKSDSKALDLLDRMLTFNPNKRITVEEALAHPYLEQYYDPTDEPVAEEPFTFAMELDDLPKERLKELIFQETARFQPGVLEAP
# Test Method Notes: biochemical
# Assay type: binding
# Assay Context: ERK1; 1 µM; read-out: % of control at 1 µM
Express it in %; write the number only.

remaining activity at 1 µM for FC(F)c1nc2ccccc2n1-c1nc(N2CCOCC2)nc(N2CCOCC2)n1 ? 100

Request: Nc1cc(C(F)(F)F)c(-c2cc(N3CCOCC3)nc(N3CCOCC3)n2)cn1 92

Try this compound too: Cn1c(=O)n(-c2ccc(C(C)(C)C#N)cc2)c2c3cc(-c4cnc5ccccc5c4)ccc3ncc21 97

Next compound up: COc1ncc(-c2ccc3nccc(-c4ccnnc4)c3c2)cc1NS(=O)(=O)c1ccc(F)cc1F 100
